melting point by entry:

In [3]: df
Out[3]:
                                   compound  reported_metric     meas_value
0  CC(=O)Nc1ccc(SCCN2CC=C(c3ccc(F)cc3)CC2)cc1    melting point  150 to 152 °C
1  CCCCOc1cc(C=O)c([N+](=O)[O-])cc1OCc1ccccc1    melting point          94 °C
2  CSc1nn2c(N(C)C)cc(C)nc2c1S(=O)(=O)c1ccc2ccccc2c1    melting point       > 230 °C
3     CNc1nc(SCc2ccc(OC)cc2)nc(N2CCOCC2)c1N    melting point  79.5 to 84 °C
4  COc1cccc2c1C(=O)OC2c1ccccc1 (stereo unspecified)    melting point  135 to 138 °C

Please turn your attention to the following entry.
Return the recorded melting point value; entry: COc1ccc(OC(C(=O)O)c2ccccc2)cc1 (stereo unspecified)
108 to 110 °C

* * *

Item-by-item account of melting point

Please give the documented melting point of `COc1ccc(Cl)cc1-c1n[nH]c(=O)cc1NN`
285 to 290 °C

Please give measured melting point of the following entry: `Cn1nc(-c2ccc([N+](=O)[O-])o2)c2c(NO)ncnc21`
294 °C

Return the recorded melting point value; entry: `CS(=O)(=O)Nc1cccc(Nc2nc(NCCO)c3nc[nH]c3n2)c1`
163 to 166 °C

For the compound `CCOC(=O)c1c(N2CCN(Cc3ccccc3)CC2)n[nH]c1C` , give its measured melting point value.
124 to 126 °C

Note melting point for the compound shown: `Nc1cc(C(=O)O)cc(OCc2ccccc2)c1C(=O)c1ccc(Cl)cc1`
196 to 197 °C

Write down melting point measured for item `Cc1cc(=O)[nH]c(SCc2ccc(Br)cc2N(C)C)n1`
163 to 164 °C

Report melting point for CC1CC(=O)c2c(C(=O)O)c[nH]c2C1 (stereo unspecified)
210 to 211 °C

Give the reported value of melting point for this record: `Cn1ncc2[nH]c3ccc(Cc4cccc(C(=O)O)c4)cc3c(=O)c21`
> 300 °C

Give me measured melting point, please, for this compound: `Cc1ccc(S(=O)(=O)NC(C)(C)C)s1`
89 °C

Answer with reported melting point of `OCc1cccc2c1SC(c1ccccc1)=CC2`
120 to 122 °C

Report melting point, nothing else, for this compound: `COc1ccc(OC)c(C2(C(C)(C)O)CCN(C)CC2)c1`
139 to 140 °C

* * *

Reported melting point values for the following compounds.

Would you please look over these solved cases?
>>> df
                                   compound  reported_metric     meas_value
0       O=C(c1cccnc1)c1cccc([N+](=O)[O-])c1    melting point    73 to 76 °C
1  CSc1nc(-c2ccc(=O)n(C)n2)c(-c2ccccc2)nc1N    melting point  204 to 206 °C
2           CCOC(=O)c1coc(-c2ccc(CCl)cc2)n1    melting point  115 to 117 °C

Consider the compound `COC(=O)c1c(-c2ccc(F)cc2)nc(N)nc1C(C)C` . State its measured melting point.
146 to 147 °C

Check the records and state melting point for `CCc1cc2c(cc1Cl)=CCc1cccnc1C=2C1CCN(C(=O)Cc2cccnc2)CC1`
67.2 to 69.8 °C

* * *

melting point values for the compounds below.

Consider the following illustrative entries.
>>> print(df.to_string())
                             compound  reported_metric     meas_value
0  O=C1OCCN1c1ccc(F)c([N+](=O)[O-])c1    melting point         135 °C
1               C#Cc1ccc2cc(OC)ccc2c1    melting point  111 to 112 °C

Answer with reported melting point of `CCOC(=O)C=C(C)c1ccc(-c2ccc(Cl)cc2)cc1`
91 to 94 °C

Report melting point, nothing else, for this compound: `CCN(CC)CCCNc1nnc(-c2ccc(F)c(F)c2Nc2ccc(I)cc2F)o1`
116 to 118 °C

Fill in melting point for record c1cc2c3c(c1)C[C@@H]1CCC[C@@H]1N3CCNC2 (relative stereo)
180 to 190 °C

Give the reported value of melting point for this record: COC(=O)[C@@H]1CCCC[C@@H]1C(=O)N(C)CC(=O)NO (relative stereo)
101 to 102 °C

* * *

Parameter melting point: see the listing below.

Example compounds with recorded melting point:
                                   compound  reported_metric     meas_value
0  Oc1ccc2c(c1)OCC(c1ccc(F)cc1)C2c1ccc(OCCN2CCCCC2)cc1 (centres undefined)    melting point  146 to 147 °C
1  CCOC(=O)C1=C(C)NC(c2cscn2)=NC1c1cccc(F)c1 (centres undefined)    melting point  118 to 120 °C
2  O=C(Nc1ccc(C(=O)N2Cc3ccccc3Cc3ccccc32)cc1)c1ccc(F)cc1F    melting point  215 to 217 °C
3  CSC1C(O)C(CO)OC1n1ccc(NC(=O)c2ccccc2)nc1=O (centres undefined)    melting point  193 to 194 °C
4  CC1(C)SC(c2ccccc2OCCO[N+](=O)[O-])NC1C(=O)O (centres undefined)    melting point   98 to 101 °C
5  O=C(CCC(NS(=O)(=O)c1ccc2oc3ccccc3c2c1)C(=O)O)NCCc1ccccc1 (centres undefined)    melting point  197 to 201 °C

Given `Cn1c(=O)n(-c2cc([N+](=O)[O-])c(Cl)cc2F)c(=S)n1C` , respond with its melting point.
146 °C

Output measured melting point for this item: `Cc1ccc(-n2c(-c3ccc(Br)cc3)nc3c4ccccc4c4ccccc4c32)cc1`
236 °C

Give melting point for `Cc1cnc2[nH]cc(/C=C3\N=C(NCC4CC4)NC3=O)c2c1`
319 to 320 °C

Tell me melting point reported for `Cc1ccc(C(=O)N[C@@H](COC(C)(C)C)NC(=S)Nc2cccc([N+](=O)[O-])c2)cc1`
169 to 171 °C

// Input: `Cc1cccc(NC(=O)NCC(=O)N(CC(=O)OC(C)(C)C)c2ccccc2C)c1` . Output its melting point only.
133 °C

* * *

Entries and their melting point values follow.

                                   molecule   meas_value
0  CC(C)(C)OC(=O)C=Cc1cc(Br)cc(Cc2cccnc2)c1  97 to 99 °C

Specify melting point for CC1(C)CCc2ccccc2C1n1cncc1C1SCCS1 (configuration not stated) and stop.
109 °C

Determine its reported melting point: COCCNCCc1ccc(Nc2ncc3c(n2)-c2ccccc2C(c2ccccc2C(F)(F)F)C3)cc1 (configuration not stated)
61 to 62 °C

Could you please provide reported melting point for CCn1c(C(C)N(C)S(=O)(=O)c2ccc(Cl)c(Cl)c2)cnc1Oc1ccc(Cl)cc1 (configuration not stated) ? Thanks!
142 to 144 °C

* * *

reported_metric: melting point

Reference set, count: 6
>>> print(df.to_string())
                                   molecule  reported_metric     meas_value
0  CCCNC(=O)Nc1ccc(C(=O)c2c(C)c(OCCOC)c3ccccn23)cc1C(=O)OC    melting point         125 °C
1              CC(C)(C)c1ccc(SN2CCOC2=O)cc1    melting point    76 to 81 °C
2       CCN(CC)CCNC(=O)c1cc(I)cc2c(F)ccnc12    melting point    79 to 81 °C
3              Cc1cc2nc(Cl)c3cnc(Cl)cc3n2n1    melting point         203 °C
4          Nc1ccc(-c2ccccc2)cc1[N+](=O)[O-]    melting point  163 to 165 °C
5  CCOC(=O)Cc1c2c(nn1-c1ccccc1)c(=O)[nH]c1ccccc12    melting point  301 to 303 °C

# return recorded melting point for entry `Oc1ncc(-c2ccccc2Cl)cn1`
232 to 233 °C

Look up and state reported melting point for `O=[N+]([O-])c1cc(Cl)c(Oc2ccccc2)c(Cl)c1Oc1ccccc1`
164 °C

For the molecule `C/C(=C/C#N)c1ccc2c(c1)C(C)(C)OC(=O)N2` , report melting point.
213 to 215 °C

* * *

Reported melting point values for the following molecules.

Identify the reported melting point for the following entry. CC(C)(C)C(=O)C(Br)c1ccccc1 (stereo not given)
38 to 42 °C

Please report the measured melting point for `CCCCCCCCCCCCCCOc1cc(-c2ccccc2)c(OCC(=O)O)c(-c2ccccc2)c1`
89 to 90 °C

* * *

reported_metric: melting point

>>> print(df.to_string())
                                   molecule  reported_metric     meas_value
0  CCc1nc2c(cnn2CC)c(NC2CCOCC2)c1CNC(=O)c1cccc(C(=O)NCc2ccc(C)c(-c3cccc(CN4CCCNCC4)c3)c2)c1    melting point  118 to 120 °C

Given `Nc1ccc2c(c1)nc(/C=C/c1ccccc1)n2-c1ccccn1` , respond with its melting point.
146 to 148 °C

Hello, please tell me recorded melting point for this one: CCCC(=O)C1C(=O)CC(c2ccc(C)cc2)CC1=O (stereo not given)
76 to 78 °C

// Input: `Nc1ccc(Oc2c(N3CCCC3)cc(C(=O)O)cc2S(N)(=O)=O)cc1` . Output its melting point only.
234 to 240 °C

Give a short answer stating reported melting point for CC#CC(C)(C)NC(=O)C(OCC)Oc1cc(Cl)cc(Cl)c1 (stereo not given) .
76.5 °C

The origin of these recorded values is a melting point compilation (Tetko et al.; mined from patent text by program, amines drawn as free bases though some values may be those of a salt).
